# TESTED_ON: Cy5-labelled Mcl1 (amino acids 171-321) C286S protein (UniProtKB Q07820) (Homo sapiens (Human), UniProt Q07820, C286S)
# Sequence (Q07820 171-321 C286S): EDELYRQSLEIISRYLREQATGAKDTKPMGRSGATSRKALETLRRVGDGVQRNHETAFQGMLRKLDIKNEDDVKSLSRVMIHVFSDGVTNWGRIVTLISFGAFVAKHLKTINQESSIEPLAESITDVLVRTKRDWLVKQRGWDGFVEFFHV
# ASSAY_TEXT: Inhibition of Mcl-1 by the fluorescence quenching assay (Example A, Method B)
# Assay type: binding
READOUT_TYPE: Ki (nM)

P. CC[C@@H]1CC[C@@H](O)c2nccc(OC[C@H](C)C[C@H]3Cc4ccccc4[C@]34CC[C@@](Nc3cccc(Cl)c3)(C(=O)O)CC4)c21
Q. C[C@@H](COc1ccnc2c1[C@H](C)CC[C@H]2F)CC1=Cc2cc(F)ccc2[C@]12CC[C@@](Nc1cccc(Cl)c1)(C(=O)O)CC2
[Q] Smaller Ki value? Options are P and Q Which one? Tell me its label.
[A] P

A. O=C(O)[C@]1(Nc2cccc(Cl)c2)CC[C@@]2(CC1)c1ccccc1C[C@@H]2C[C@H](COc1ccncc1)c1ccccc1
B. CC[C@@H]1COc2cc3c(cc2O1)[C@]1(CC[C@@](Nc2cccc(Cl)c2)(C(=O)O)CC1)[C@@H](C[C@@H](C)COc1ccnc2c1[C@H](C)CCC2)C3
[Q] Dear colleague, could you let me know whether A or B has the lower recorded Ki? Thanks. Select an item and report its label.
[A] B

A. CCOc1cc2c(cc1Cl)C[C@H](C[C@@H](C)COc1ccnc3c1[C@H](C)CCC3)[C@]21CC[C@](Nc2cccc(Cl)c2)(C(=O)O)CC1
B. C[C@@H](COc1ccnc2c1[C@H](C)CCC2)C[C@@H]1Cc2cc3c(cc2[C@]12CC[C@@](Nc1cccc(Cl)c1)(C(=O)O)CC2)OCO3
[Q] Look at A and B . Which one has the lower recorded Ki number? Reply with the label of the item you choose.
[A] B
(B: 0.172 nM, A: 0.353 nM)
